target_of_assay: T1, LILRA1 (human, UniProt O75019)
T1 construct: not the cell-surface form of MOLECULES; also called LILRA1 protein of the ELISA and Octet specificity tests
experiment: Octet RED96, cross-reactivity table
quantity: binding result

binder	reported_value
B1-#3 (antibody, V domains shown, IgG; also called antagonistic B1-3) VH: QSLEESEGDLVKPEGSLTLTCKASGFDFSSDAMCWVRQAPGKGLEWIGCIYNGDEITDHASWAKGRFTISKTSPTTVTLQMTSLTVADTATYFCARAVYSDGGAGYPYMYGMDLWGPGTLVTVSS VL: ELDMTQTPASVEAAVGGTVTIKCQASQNIYSYLVWYQQKPGQPPKLLISKASTLASGVSSRFKGSGSGTEFTLTINDLECADAATYYCQTNYFSSTSHFGVFTFGGGTELEIK	binds
B1-#190 (antibody, V domains shown, recombinant rabbit IgG) VH: QEQLKESGGDLVKPEGSLTLTCTASGFSFSSDYWVCWVRQAPGKGPEWIGCIYTGDDDTYYASWAKGRFTISKTSSTTVTLEVTSLTAADTATYFCARGLTIGTAELYFWGPGTVVTVSS VL: ELVLTQTPSPVSAAVGGTVTINCQASQSISNELSWYQQKPGQPPKLLIYLASTLDSGVPSRFKGSGSGTQFTLTISDLECADAATYYCQSHYYGGSSDYGWAFGGGTEVVVK	binds
